These data points were gathered from patent US20070244190A1.

- Tested on: COLO 205 cells
- assay_protocol: Apoptosis (sub-G1) by flow cytometry
- Format: cell-based, human
- assay_context: COLO 205, 5 μM, 24 h, mean ± SE
Each entry below carries its reported apoptotic ratio.
Write it as a number; the unit % goes unstated.

| molecule | target_desc | unit_annotation | reported_measurement |
| --- | --- | --- | --- |
| C=C1C(=O)O[C@@H]2CC(C)=C([C@@H](C)CCCO)[C@H](O)[C@H]12 [Compound 5, britannilactone] | COLO 205 cells | % | 11.90 |

Switching to the query record.
Q: What measured apoptotic ratio goes with C=C1C(=O)OC2C=C(C)CCC=C(C)CC(O)C12 (stereo not shown) [Compound 3] ?
A: 10.73
